# System: sciatic-gastrocnemious preparation
# method: Neuromuscular blocking activity in vivo, sciatic-gastrocnemious preparation
# Parameters: species or system male Sprague-Dawley rats
# condition.info: iv; rat, i.v., anaesthetized (urethane); read-out: ED50 (effective dose causing the 50% reduction of muscular contraction)
ED50 values, listed per item
measurement.label: ED50 (µg/kg)

* Brc1ccc(-c2c[n+]3ccccc3n2CCCCCCn2c(-c3ccc(Br)cc3)c[n+]3ccccc23)cc1 | 3
* Fc1ccc(-c2c[n+]3ccccc3n2CCCCCCn2c(-c3ccc(F)cc3)c[n+]3ccccc23)cc1 | 3
* c1ccc(-c2c[n+]3ccccc3n2CCCCCCn2c(-c3ccccc3)c[n+]3ccccc23)cc1 | 2.1
* Cc1c(-c2ccccc2)n(CCCCCCCCn2c(-c3ccccc3)c(C)[n+]3ccccc23)c2cccc[n+]12 | 1.6
* c1ccc(-c2c[n+]3ccccc3n2CCCCn2c(-c3ccccc3)c[n+]3ccccc23)cc1 | 3.3
* COc1ccc(-c2c[n+]3ccccc3n2CCCCCCn2c(-c3ccc(OC)cc3)c[n+]3ccccc23)cc1 [Example 5, monohydrate] | 1.9
* c1ccc(-c2c[n+]3ccccc3n2CCCCCCCCn2c(-c3ccccc3)c[n+]3ccccc23)cc1 | 1.9

====

# System: arterial blood pressure and heart rate
# method: Cardiovascular effects (arterial blood pressure and heart rate) in vivo
# Design: species or system male Sprague-Dawley rats
# condition.info: rat, i.v., at ED50 on muscular contraction
Classes (Arterial blood pressure Δ %): lo: < -40%; mid: ≥ -40% and < -30%; hi: ≥ -30%

• c1ccc(-c2c[n+]3ccccc3n2CCCCCCCCn2c(-c3ccccc3)c[n+]3ccccc23)cc1 = lo
• Fc1ccc(-c2c[n+]3ccccc3n2CCCCCCn2c(-c3ccc(F)cc3)c[n+]3ccccc23)cc1 = mid
• Cc1c(-c2ccccc2)n(/N=N/n2c(-c3ccccc3)c(C)[n+]3ccccc23)c2cccc[n+]12 [Fazadinium bromide, reference compound] = hi
• Brc1ccc(-c2c[n+]3ccccc3n2CCCCCCn2c(-c3ccc(Br)cc3)c[n+]3ccccc23)cc1 = lo
• Cc1c(-c2ccccc2)n(CCCCn2c(-c3ccccc3)c(C)[n+]3ccccc23)c2cccc[n+]12 = hi
• Cc1c(-c2ccccc2)n(CCn2c(-c3ccccc3)c(C)[n+]3ccccc23)c2cccc[n+]12 = hi
• c1ccc(-c2c[n+]3ccccc3n2CCCCn2c(-c3ccccc3)c[n+]3ccccc23)cc1 = mid
• Cc1c(-c2ccccc2)n(CCCCCCCCn2c(-c3ccccc3)c(C)[n+]3ccccc23)c2cccc[n+]12 = hi

====

# System: arterial blood pressure and heart rate
# method: Cardiovascular effects (arterial blood pressure and heart rate) in vivo
# Design: species or system male Sprague-Dawley rats
# condition.info: rat, i.v., at ED50 on muscular contraction
Heart rate Δ % values, listed per item
measurement.label: Heart rate Δ %

* Fc1ccc(-c2c[n+]3ccccc3n2CCCCCCn2c(-c3ccc(F)cc3)c[n+]3ccccc23)cc1 | +28%
* c1ccc(-c2c[n+]3ccccc3n2CCn2c(-c3ccccc3)c[n+]3ccccc23)cc1 | +28%
* Cc1c(-c2ccccc2)n(CCCCCCCCn2c(-c3ccccc3)c(C)[n+]3ccccc23)c2cccc[n+]12 | +40%
* c1ccc(-c2c[n+]3ccccc3n2CCCCn2c(-c3ccccc3)c[n+]3ccccc23)cc1 | +25%
* Cc1c(-c2ccccc2)n(CCCCn2c(-c3ccccc3)c(C)[n+]3ccccc23)c2cccc[n+]12 | +1%
* c1ccc(-c2c[n+]3ccccc3n2CCCCCCCCn2c(-c3ccccc3)c[n+]3ccccc23)cc1 | +22%
* Cc1c(-c2ccccc2)n(CCn2c(-c3ccccc3)c(C)[n+]3ccccc23)c2cccc[n+]12 | +6%
* COc1ccc(-c2c[n+]3ccccc3n2CCCCCCn2c(-c3ccc(OC)cc3)c[n+]3ccccc23)cc1 [Example 5, monohydrate] | +26%
* c1ccc(-c2c[n+]3ccccc3n2CCCCCCn2c(-c3ccccc3)c[n+]3ccccc23)cc1 | +42%
* Cc1c(-c2ccccc2)n(/N=N/n2c(-c3ccccc3)c(C)[n+]3ccccc23)c2cccc[n+]12 [Fazadinium bromide, reference compound] | +30%
* Cc1c(-c2ccccc2)n(CCCCCCn2c(-c3ccccc3)c(C)[n+]3ccccc23)c2cccc[n+]12 | +68%
* Brc1ccc(-c2c[n+]3ccccc3n2CCCCCCn2c(-c3ccc(Br)cc3)c[n+]3ccccc23)cc1 | -8%

====

# Test system: arterial blood pressure and heart rate
# method: Cardiovascular effects (arterial blood pressure and heart rate) in vivo
# Design: species or system male Sprague-Dawley rats
# condition.info: rat, i.v., at ED50 on muscular contraction
Arterial blood pressure Δ % values, listed per item
measurement.label: Arterial blood pressure Δ % (%)

* c1ccc(-c2c[n+]3ccccc3n2CCCCCCn2c(-c3ccccc3)c[n+]3ccccc23)cc1 | -40
* c1ccc(-c2c[n+]3ccccc3n2CCn2c(-c3ccccc3)c[n+]3ccccc23)cc1 | -30
* Cc1c(-c2ccccc2)n(CCCCCCn2c(-c3ccccc3)c(C)[n+]3ccccc23)c2cccc[n+]12 | -40
* COc1ccc(-c2c[n+]3ccccc3n2CCCCCCn2c(-c3ccc(OC)cc3)c[n+]3ccccc23)cc1 [Example 5, monohydrate] | -39
